Tested on: HPAC cells
Assay: HPAC 3D proliferation assay (CellTiter-Glo 3D)
Format: cell-based
Conditions: Homo sapiens, 168 h, 3D culture, 7 days, read-out: HPAC CTG IC50
measurement-kind: IC50 (µM)
Reply with just the number (in µM).

[
  {
    "compound": "Cc1nc(N)c(Cl)c(-c2nc3c4c(nc(OC[C@@]56CCCN5C[C@H](F)C6)nc4c2F)N([C@H](C)c2cccnc2N)CCO3)c1C(F)(F)F (single isomer, unassigned) [Example 601b]",
    "measurement-units": "µM",
    "result": 0.0867
  }
]

Now for another entry.
Enquiry: API: value(readout= IC50, system= HPAC cells, query= Cc1nc(N)c(Cl)c(-c2nc3c4c(nc(OC[C@@]56CCCN5C[C@H](F)C6)nc4c2F)N([C@H](C)c2cccnc2N)CCO3)c1C(F)(F)F (atropisomer, axis not shown; (aS)) [Example 601a] )
Return: 0.0336

Origin of the recorded values: patent US20260137699A1
